- EXPERIMENTAL_SYSTEM: HLA-B*83:01
- ASSAY: IEDB peptide-MHC binding, purified MHC/competitive/fluorescence; filed as Kd, often an IC50 or EC50 that approximates it; bounds were set here for any values at or beyond the usual limits of such assays
- PROTOCOL_CONDITIONS: source organism: Mycobacterium tuberculosis C
Kd reference

# SEQUENCE_RECORD, Kd
data = [
    ("RLYELIGSV", "≥ 5 µM"),
    ("SVMAIFYLR", "≥ 5 µM"),
]

* * *

- EXPERIMENTAL_SYSTEM: HLA-B*45:06
- ASSAY: IEDB peptide-MHC binding, purified MHC/competitive/fluorescence; filed as Kd, often an IC50 or EC50 that approximates it; bounds were set here for any values at or beyond the usual limits of such assays
- PROTOCOL_CONDITIONS: source organism: Human herpesvirus 4 strain B95-8

# SEQUENCE_RECORD, EXPERIMENTAL_SYSTEM, Kd
rows = [
    ("CSDAFYPFY", "HLA-B*45:06", "≥ 5 µM"),
]
